Recorded pKd for the following binders
EXPERIMENTAL_TARGET: MAST1, Q9Y2H9
Sequence (Q9Y2H9 962-1065): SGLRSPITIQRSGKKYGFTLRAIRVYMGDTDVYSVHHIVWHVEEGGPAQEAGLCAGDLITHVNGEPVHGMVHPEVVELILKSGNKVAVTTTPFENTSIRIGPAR
ASSAY_SUMMARY: holdup assay
Design: key: below the threshold = too weak to quantify, mostly under pKd 3.1 to 4
SETUP_CONDITIONS: plain residues with an end cap or a label only (N-terminal biotin on a linker: ttds)
OBSERVATION_TYPE: pKd

>>> result("SSIDLWETAL [SLC15A5, A6NIM6]")
5.45
>>> result("NPDALPETLV [ARHGAP6, O43182]")
4.38
>>> result("SGGKRKETLV [NET1, Q7Z628]")
4.33
>>> result("GARVSKETPL [MAPK12, P53778]")
4.65
>>> result("GRLLGLETNV [ARHGEF26, Q96DR7]")
4.33
>>> result("KLVIKTETTV [RASSF6, Q6ZTQ3]")
4.68

The reported numbers originate from paper PMC9482650.
